- assay_remarks: Stability confirmation test (impurity formation during storage under severe conditions, liquid chromatography)
- Format: physicochemical
- particulars: high-humidity exposure condition (60° C. and 95% relative humidity), After 4 weeks
readout_name: Peak area of main component (%)

INSERT INTO measurements (molecule, unit_of_measurement, quantitative_result) VALUES
  ('CNCc1cn(S(=O)(=O)c2cccc(F)c2)c(-c2ccc(F)cc2F)c1OC.Cl [Example 1]', '%', 99.80),
  ('CNCc1cn(S(=O)(=O)c2cccc(F)c2)c(-c2ccc(F)cc2F)c1OC.O=C(O)C(O)C(O)C(=O)O [Example 3]', '%', 99.23),
  ('CNCc1cn(S(=O)(=O)c2cccc(F)c2)c(-c2ccc(F)cc2F)c1OC.O=C(O)CCC(=O)O [Example 2]', '%', 99.47),
  ('CNCc1cn(S(=O)(=O)c2cccc(F)c2)c(-c2ccc(F)cc2F)c1OC.O=C(O)/C=C/C(=O)O [Example 4]', '%', 99.30);

---

- assay_remarks: Stability confirmation test (impurity formation during storage under severe conditions, liquid chromatography)
- Type: physicochemical
- particulars: high-humidity exposure condition (60° C. and 95% relative humidity), After 4 weeks
readout_name: Peak area of total impurities (%)

Reference set (2 entries):
INSERT INTO measurements (smiles_structure, readout_name, quantitative_result) VALUES
  ('CNCc1cn(S(=O)(=O)c2cccc(F)c2)c(-c2ccc(F)cc2F)c1OC.O=C(O)C(O)C(O)C(=O)O', 'Peak area of total impurities (%)', 0.77),
  ('CNCc1cn(S(=O)(=O)c2cccc(F)c2)c(-c2ccc(F)cc2F)c1OC.O=C(O)CCC(=O)O', 'Peak area of total impurities (%)', 0.54);

(1) CNCc1cn(S(=O)(=O)c2cccc(F)c2)c(-c2ccc(F)cc2F)c1OC.O=C(O)/C=C/C(=O)O
(2) CNCc1cn(S(=O)(=O)c2cccc(F)c2)c(-c2ccc(F)cc2F)c1OC.Cl
Lab note: check whether 1 or 2 has the lower measured Peak area of total impurities (%). Label of pick, please. 2
(2: 0.20%, 1: 0.70%)

---

- assay_remarks: Stability confirmation test (impurity formation during storage under severe conditions, liquid chromatography)
- Format: physicochemical
- particulars: moisture-proof condition (60° C. and less than 10% relative humidity), Initial
readout_name: Peak area of main component (%)

INSERT INTO assay_data (smiles_structure, unit_of_measurement, quantitative_result) VALUES
  ('CNCc1cn(S(=O)(=O)c2cccc(F)c2)c(-c2ccc(F)cc2F)c1OC.O=C(O)C(O)C(O)C(=O)O', '%', 99.52),
  ('CNCc1cn(S(=O)(=O)c2cccc(F)c2)c(-c2ccc(F)cc2F)c1OC.O=C(O)CCC(=O)O', '%', 99.55),
  ('CNCc1cn(S(=O)(=O)c2cccc(F)c2)c(-c2ccc(F)cc2F)c1OC.Cl', '%', 99.82),
  ('CNCc1cn(S(=O)(=O)c2cccc(F)c2)c(-c2ccc(F)cc2F)c1OC.O=C(O)/C=C/C(=O)O', '%', 99.38);

---

- assay_remarks: Stability confirmation test (impurity formation during storage under severe conditions, liquid chromatography)
- Type: physicochemical
- particulars: moisture-proof condition (60° C. and less than 10% relative humidity), After 2 weeks
readout_name: Peak area of main component (%)

INSERT INTO assay_data (smiles_structure, quantitative_result) VALUES
  ('CNCc1cn(S(=O)(=O)c2cccc(F)c2)c(-c2ccc(F)cc2F)c1OC.O=C(O)C(O)C(O)C(=O)O', 99.54),
  ('CNCc1cn(S(=O)(=O)c2cccc(F)c2)c(-c2ccc(F)cc2F)c1OC.O=C(O)CCC(=O)O', 99.61),
  ('CNCc1cn(S(=O)(=O)c2cccc(F)c2)c(-c2ccc(F)cc2F)c1OC.O=C(O)/C=C/C(=O)O', 99.36),
  ('CNCc1cn(S(=O)(=O)c2cccc(F)c2)c(-c2ccc(F)cc2F)c1OC.Cl', 99.80);

---

- assay_remarks: Stability confirmation test (impurity formation during storage under severe conditions, liquid chromatography)
- Type: physicochemical
- particulars: moisture-proof condition (60° C. and less than 10% relative humidity), After 4 weeks
readout_name: Peak area of main component (%)

INSERT INTO results (smiles_structure, quantitative_result) VALUES
  ('CNCc1cn(S(=O)(=O)c2cccc(F)c2)c(-c2ccc(F)cc2F)c1OC.O=C(O)C(O)C(O)C(=O)O', 99.48),
  ('CNCc1cn(S(=O)(=O)c2cccc(F)c2)c(-c2ccc(F)cc2F)c1OC.O=C(O)/C=C/C(=O)O', 99.37),
  ('CNCc1cn(S(=O)(=O)c2cccc(F)c2)c(-c2ccc(F)cc2F)c1OC.O=C(O)CCC(=O)O', 99.55),
  ('CNCc1cn(S(=O)(=O)c2cccc(F)c2)c(-c2ccc(F)cc2F)c1OC.Cl', 99.80);

---

- assay_remarks: Stability confirmation test (impurity formation during storage under severe conditions, liquid chromatography)
- Type: physicochemical
- particulars: high-humidity exposure condition (60° C. and 95% relative humidity), After 1 week
readout_name: Peak area of total impurities (%)

INSERT INTO measurements (compound, readout_name, quantitative_result) VALUES
  ('CNCc1cn(S(=O)(=O)c2cccc(F)c2)c(-c2ccc(F)cc2F)c1OC.O=C(O)/C=C/C(=O)O [Example 4]', 'Peak area of total impurities (%)', 0.60);

(A) CNCc1cn(S(=O)(=O)c2cccc(F)c2)c(-c2ccc(F)cc2F)c1OC.O=C(O)C(O)C(O)C(=O)O [Example 3]
(B) CNCc1cn(S(=O)(=O)c2cccc(F)c2)c(-c2ccc(F)cc2F)c1OC.Cl [Example 1]
# argmax over Peak area of total impurities (%) for candidates A and B Identify your selection by its label. A

---

- assay_remarks: Stability confirmation test (impurity formation during storage under severe conditions, liquid chromatography)
- Format: physicochemical
- particulars: high-humidity exposure condition (60° C. and 95% relative humidity), After 2 weeks
- Method: The stability test was carried out for the acid addition salts prepared in the Examples to evaluate the degree to which impurities were formed during storage under severe conditions (moisture-proof condition and high-humidity exposure condition). […] The resulting supernatant was analyzed using a liquid chromatography. […]
readout_name: Peak area of total impurities (%)

INSERT INTO assay_data (smiles_structure, quantitative_result) VALUES
  ('CNCc1cn(S(=O)(=O)c2cccc(F)c2)c(-c2ccc(F)cc2F)c1OC.O=C(O)C(O)C(O)C(=O)O', 0.57);

(P) CNCc1cn(S(=O)(=O)c2cccc(F)c2)c(-c2ccc(F)cc2F)c1OC.O=C(O)/C=C/C(=O)O
(Q) CNCc1cn(S(=O)(=O)c2cccc(F)c2)c(-c2ccc(F)cc2F)c1OC.Cl
(R) CNCc1cn(S(=O)(=O)c2cccc(F)c2)c(-c2ccc(F)cc2F)c1OC.O=C(O)CCC(=O)O
Reorder the items by Peak area of total impurities (%), least to greatest. // list labels; follow requested order Q, R, P

---

- assay_remarks: Stability confirmation test (impurity formation during storage under severe conditions, liquid chromatography)
- Format: physicochemical
- particulars: high-humidity exposure condition (60° C. and 95% relative humidity), Initial
readout_name: Peak area of main component (%)

INSERT INTO measurements (smiles_structure, readout_name, unit_of_measurement, quantitative_result) VALUES
  ('CNCc1cn(S(=O)(=O)c2cccc(F)c2)c(-c2ccc(F)cc2F)c1OC.O=C(O)C(O)C(O)C(=O)O', 'Peak area of main component (%)', '%', 99.52),
  ('CNCc1cn(S(=O)(=O)c2cccc(F)c2)c(-c2ccc(F)cc2F)c1OC.O=C(O)/C=C/C(=O)O', 'Peak area of main component (%)', '%', 99.38),
  ('CNCc1cn(S(=O)(=O)c2cccc(F)c2)c(-c2ccc(F)cc2F)c1OC.O=C(O)CCC(=O)O', 'Peak area of main component (%)', '%', 99.55),
  ('CNCc1cn(S(=O)(=O)c2cccc(F)c2)c(-c2ccc(F)cc2F)c1OC.Cl', 'Peak area of main component (%)', '%', 99.82);

---

- assay_remarks: Stability confirmation test (impurity formation during storage under severe conditions, liquid chromatography)
- Format: physicochemical
- particulars: high-humidity exposure condition (60° C. and 95% relative humidity), After 1 week
readout_name: Peak area of main component (%)

INSERT INTO measurements (smiles_structure, readout_name, quantitative_result) VALUES
  ('CNCc1cn(S(=O)(=O)c2cccc(F)c2)c(-c2ccc(F)cc2F)c1OC.O=C(O)/C=C/C(=O)O', 'Peak area of main component (%)', 99.40),
  ('CNCc1cn(S(=O)(=O)c2cccc(F)c2)c(-c2ccc(F)cc2F)c1OC.Cl', 'Peak area of main component (%)', 99.81),
  ('CNCc1cn(S(=O)(=O)c2cccc(F)c2)c(-c2ccc(F)cc2F)c1OC.O=C(O)CCC(=O)O', 'Peak area of main component (%)', 99.56),
  ('CNCc1cn(S(=O)(=O)c2cccc(F)c2)c(-c2ccc(F)cc2F)c1OC.O=C(O)C(O)C(O)C(=O)O', 'Peak area of main component (%)', 99.48);

Just for reference, patent US10487053B2 is where these values come from.
